Test system: PGE2 secretion by normal human bladder smooth muscle cells
assayNotes: PGE2 ELISA of normal human bladder smooth muscle cell supernatants
Assay type: cell-based
appliedConditions: LPS (10 μg/ml) plus analgesic 50 μM; LPS alone 1125; mean of duplicates
measurementName: PGE2 levels (pg/ml) Subject 1 (pg/mL)

>>> value("CC(C)Cc1ccc(C(C)C(=O)O)cc1 (stereo not shown) [Ibuprofen, ibuprofen]")
821
>>> value("COc1ccc2cc([C@H](C)C(=O)O)ccc2c1 [Naproxen]")
819
>>> value("CC(=O)Nc1ccc(O)cc1 [Acetaminophen, N-acetyl-para-aminophenol]")
803
>>> value("CC(=O)Oc1ccccc1C(=O)O [Aspirin, Acetylsalicylic acid]")
812
